Tested on: Msgal1-L1
Assay: Solid-phase binding-inhibition assay: rMsgal1-L1-HRP binding to asialofetuin (ASF) inhibited by carbohydrates
Set-up: species or system Morone saxatilis
Settings: I50 normalized to Galβ1,4Glc (lactose) = 1.0; rMsgal1-L1-HRP binding to ASF; pH 8.0, 23°C, 10 mM ME
Procedure: Binding of the rMsgal1-L1–HRP to asialofetuin (ASF) and its inhibition by carbohydrates were assessed and optimized as reported elsewhere ([Ahmed et al., 1996], [2002]). […] Thus, the inhibition of galectin binding to immobilized ASF by mono- and oligosaccharides is a standard system to analyze the fine specificity of novel galectins. […]
Kindly state Relative inhibitory activity, Morone saxatilis for each of the entries shown.
# print the numeric value only

Given the compound Nc1ccc(O[C@@H]2O[C@H](CO)[C@@H](O[C@@H]3O[C@H](CO)[C@H](O)[C@H](O)[C@H]3O)[C@H](O)[C@H]2O)cc1 [Galβ1,4Glcβ-OPhNH2 (p)] , write its reported Relative inhibitory activity, Morone saxatilis.
2

Consider the compound OC[C@H]1O[C@@H](O[C@H]2[C@H](O)[C@H](O)C(O)O[C@@H]2CO)[C@H](O)[C@@H](O)[C@H]1O (stereo partly drawn) [Galβ1,4Man] . State its measured Relative inhibitory activity, Morone saxatilis.
1.74

Give me measured Relative inhibitory activity, Morone saxatilis, please, for this compound: O=C[C@H](O)[C@@H](O)[C@@H](O)[C@H](O)CO [Gal, D-galactose]
0.007

Note Relative inhibitory activity, Morone saxatilis for the compound shown: OC[C@H]1O[C@@H](O[C@H]2[C@H](O)[C@@H](O)[C@H](O)O[C@@H]2CO)[C@H](O)[C@@H](O)[C@H]1O [Galβ1,4Glc, lactose]
1.0

Tell me Relative inhibitory activity, Morone saxatilis reported for CC(=O)N[C@H]1[C@H](O[C@H]2[C@H](O)[C@@H](CO)OC(O)[C@@H]2O)O[C@H](CO)[C@H](O)[C@@H]1O (stereo partly drawn) [GalNacβ1,3Glc]
2.8

Please give measured Relative inhibitory activity, Morone saxatilis of the following entry: CO[C@@H]1O[C@H](CO)[C@H](O)[C@H](O)[C@H]1O [Galβ-OMe]
0.009

Please list Relative inhibitory activity, Morone saxatilis recorded for the compound OC[C@H]1O[C@@H](O[C@@H]2[C@@H](CO)O[C@](O)(CO)[C@H]2O)[C@H](O)[C@@H](O)[C@H]1O [Galβ1,4Fru f]
1.9

Look up and state reported Relative inhibitory activity, Morone saxatilis for OC[C@H]1O[C@@H](O[C@H]2[C@@H](O)COC(O)[C@@H]2O)[C@H](O)[C@@H](O)[C@H]1O (stereo partly drawn) [Galβ1,3Ara]
4.10

Please supply the value of reported Relative inhibitory activity, Morone saxatilis for the item CC(=O)N[C@H]1[C@H](Oc2ccc([N+](=O)[O-])cc2)O[C@H](CO)[C@@H](O)[C@@H]1O[C@@H]1O[C@H](CO)[C@H](O)[C@H](O)[C@H]1O [Galβ1-3GlcNacβ-OPhNO2 (p)]
6.5

====

test system: Msgal1-L1; assay: Solid-phase binding-inhibition assay: rMsgal1-L1-HRP binding to asialofetuin (ASF) inhibited by carbohydrates; parameters: species or system Morone saxatilis; details: I50 normalized to Galβ1,4Glc (lactose) = 1.0; rMsgal1-L1-HRP binding to ASF; pH 8.0, 23°C, 10 mM ME
Relative inhibitory activity, Morone saxatilis vs 2: at or above is class 1, below is class 0.

Is reported Relative inhibitory activity, Morone saxatilis greater than or equal to 2 here: CO[C@H]1[C@H](O[C@H]2[C@H](O)[C@@H](O)C(O)O[C@@H]2CO)O[C@H](CO)[C@H](O)[C@@H]1O (stereo partly drawn)
class 1

Does OC[C@H]1O[C@H](OCC2O[C@@H](O)[C@H](O)[C@@H](O)[C@@H]2O)[C@H](O)[C@@H](O)[C@H]1O (stereo partly drawn) have a reported Relative inhibitory activity, Morone saxatilis of at least 2?
class 0

In plain terms: is recorded Relative inhibitory activity, Morone saxatilis at least 2 for `CO[C@H]1O[C@H](CO)[C@H](O)[C@H](O)[C@H]1O` ?
class 0

Check the entry OC[C@H]1O[C@@H](S[C@@H]2O[C@H](CO)[C@H](O)[C@H](O)[C@H]2O)[C@H](O)[C@@H](O)[C@H]1O [Galβ1S1βGal, Thiodigalactoside] : does Relative inhibitory activity, Morone saxatilis equal or exceed 2?
class 1

Hello, I need to know if `CO[C@@H]1O[C@H](CO)[C@@H](O[C@@H]2O[C@H](CO)[C@H](O)[C@H](O)[C@H]2O)[C@H](O)[C@H]1O` has measured Relative inhibitory activity, Morone saxatilis not below 2. Thanks!
class 0

I'd appreciate it if you could say whether CC(=O)N[C@H]1C(O)O[C@H](CO)[C@@H](O[C@@H]2O[C@H](CO)[C@H](O)[C@H](O)[C@H]2O)[C@@H]1O (stereo partly drawn) has Relative inhibitory activity, Morone saxatilis at least equal to 2.
class 1
